# testedTarget: SNAP-hSPR (sepiapterin reductase, SPR) (Homo sapiens, UniProt P35270)
# Sequence (P35270 whole entry): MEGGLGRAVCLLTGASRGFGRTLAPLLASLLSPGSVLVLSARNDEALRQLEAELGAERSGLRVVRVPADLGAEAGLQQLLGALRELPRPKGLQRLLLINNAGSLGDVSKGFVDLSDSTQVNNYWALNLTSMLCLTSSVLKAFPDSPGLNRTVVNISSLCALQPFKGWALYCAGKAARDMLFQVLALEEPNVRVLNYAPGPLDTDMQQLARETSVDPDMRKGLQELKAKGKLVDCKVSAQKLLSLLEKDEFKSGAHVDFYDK
Condition met if IC50 is below 4 nM. Condition not met if not; exact matches included in Condition not met.

Examples with answers:
Cc1cc(-n2cc(C(=O)N3CCC(C(F)(F)F)CC3)cn2)[nH]c(=O)c1    Condition met
Cc1c(C(=O)N2CCC(CC(F)(F)F)CC2)cnn1-c1nc2c(c(=O)[nH]1)CCC2    Condition met

Challenge: Bench note: check whether Cc1c(C(=O)N2CCN(C(=O)OC(C)(C)C)CC23CCC3)cnn1-c1nn2cccc2c(=O)[nH]1 shows IC50 below 4 nM
Response given: Condition met

Challenge: Bench note: check whether O=C(c1ccn(-c2nn3cccc3c(=O)[nH]2)c1)N1CCC(C(F)(F)F)CC1 shows IC50 below 4 nM
Response given: Condition met

Challenge: Bench note: check whether Cc1c(C(=O)N2CCC(C(F)(F)F)C2)cnn1-c1nc2c(c(=O)[nH]1)CCC2 (centres unmarked) shows IC50 below 4 nM
Response given: Condition met
